system: tetracycline-resistant tet(M) S. pneumoniae strain SP160; assay: Neutropenic respiratory infection model for S. pneumoniae (murine lung infection); assay type: in vivo; conditions: neutropenic BALB/c mice, SP160 intranasal, 30 mg/kg orally at 2 and 12 hours post-infection, lung CFU at 24 hours
Each entry below lists one item and its recorded Bacterial Reduction in the Lung (Log10 change from 24 hour control) value.
parameter.measured: Bacterial Reduction in the Lung (Log10 change from 24 hour control) (Log10)

[[record]]
smiles_notation = "C[C@@H](NCc1cc(O)c2c(c1N(C)C)C[C@H]1C[C@H]3[C@H](N(C)C)C(O)=C(C(N)=O)C(=O)[C@@]3(O)C(O)=C1C2=O)C(C)(C)C"
assay_result = "−4.31"

[[record]]
smiles_notation = "CCC(C)(C)N(C)Cc1cc(O)c2c(c1F)C[C@H]1C[C@H]3[C@H](N(C)C)C(O)=C(C(N)=O)C(=O)[C@@]3(O)C(O)=C1C2=O"
assay_result = "−0.06"

[[record]]
smiles_notation = "COc1c(CN(C)C(C)(C)C2CC2)cc(O)c2c1C[C@H]1C[C@H]3[C@H](N(C)C)C(O)=C(C(N)=O)C(=O)[C@@]3(O)C(O)=C1C2=O"
assay_result = "−0.89"

[[record]]
smiles_notation = "C[C@H]1CC[C@H](C)N1Cc1cc(O)c2c(c1Cl)C[C@H]1C[C@H]3[C@H](N(C)C)C(O)=C(C(N)=O)C(=O)[C@@]3(O)C(O)=C1C2=O"
assay_result = "−0.12"

[[record]]
smiles_notation = "CN(C)[C@@H]1C(O)=C(C(N)=O)C(=O)[C@@]2(O)C(O)=C3C(=O)c4c(O)cc(CN5CCCCCC5)c(Cl)c4C[C@H]3C[C@@H]12"
assay_result = "−0.22"

